B1: TPR 5TU (parent)
chain: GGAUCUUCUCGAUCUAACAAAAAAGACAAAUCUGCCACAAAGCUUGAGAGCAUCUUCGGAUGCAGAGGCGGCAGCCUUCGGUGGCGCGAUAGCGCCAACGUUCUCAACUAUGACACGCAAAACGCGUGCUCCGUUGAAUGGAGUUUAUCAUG

Variants of: B1
Assay: polymerase ribozyme fitness, log enrichment relative to wild type (log ratio); higher = more active; in vitro selection for triplet polymerase activity
This sample holds only a part of the variants without activity.
# reported polymerase ribozyme fitness (log ratio); entries follow

Some solved entries appear below for comparison.
A24U A121U G124U :: -1.16
A26G A30C G59A G74A G84U :: -3.99
C14G A66U C69A :: ≤ -4.2
C69U C96A :: -1.12
G34A C85A G133A :: ≤ -4.2

Give the reported polymerase ribozyme fitness (log ratio) for this variant. A21G A41C U56G G65A G141U
-3.42

// fetch polymerase ribozyme fitness (log ratio) given entry C51G G136U U144G
-2.56

Annotate the variant U31A G67U G83A C85A U104G C105U G136A with its measured polymerase ribozyme fitness (log ratio).
≤ -4.2

Note down polymerase ribozyme fitness (log ratio) recorded for G81A C87U A97C U101A U104G C116U
-4.01

Output polymerase ribozyme fitness (log ratio) of A30U C75G G84U C103G G124C
≤ -4.2

Please give the documented polymerase ribozyme fitness (log ratio) of U55A A89C
-0.409

Provide only the value of recorded polymerase ribozyme fitness (log ratio) for A47G G59A
0.381

Tell me polymerase ribozyme fitness (log ratio) reported for A20C G50U G83U
-0.904

Specify polymerase ribozyme fitness (log ratio) for U4A C27U G83C G117A A122G U146A and stop.
-3.14

Provide measured polymerase ribozyme fitness (log ratio) value, entry: G11C C38U C76U U78G A97G G124U
≤ -4.2

Recall and state the measured polymerase ribozyme fitness (log ratio) for A12U C96U .
-0.566

Recall and state the measured polymerase ribozyme fitness (log ratio) for C8G A22G U44A A52C A73C C125G .
≤ -4.2
